Experiment: DPPH method on ELISA (96-well microplate) for isolated compounds
Format: biochemical
Settings: compounds 2.5 to 40 μM, 30 min, 517 nm; read-out: EC50 Values (μM), DPPH radical
Test Readout: EC50 (µM)

Before answering, review these 2 worked examples.
INSERT INTO results (compound, recorded_measurement) VALUES
  ('O=C(/C=C/c1ccc(O)c(O)c1)O[C@@H]1C[C@](O)(C(=O)O)C[C@@H](OC(=O)/C=C/c2ccc(O)c(O)c2)[C@H]1OC(=O)/C=C/c1ccc(O)c(O)c1 [Compound 8, 3,4,5-Tricaffeoylquinic acid]', 10.9),
  ('O=C(/C=C/c1ccc(O)c(O)c1)O[C@@H]1[C@H](O)C[C@@](O)(C(=O)O)C[C@H]1OC(=O)/C=C/c1ccc(O)c(O)c1 [Compound 7, 4,5-Dicaffeoylquinic acid]', 13.8);

P: O=C1O[C@H]([C@@H](O)CO)C(O)=C1O [Ascorbic acid, reference compound]
Q: O=C(/C=C/c1ccc(O)c(O)c1)O[C@@H]1C[C@](O)(C(=O)O)C[C@@H](OC(=O)/C=C/c2ccc(O)c(O)c2)[C@H]1O [Compound 6, 3,5-Dicaffeoylquinic acid]
Challenge: Identify the entry with the smaller EC50: P or Q . Output the label that corresponds to your choice.
Response given: Q

###

Assay: Parallel artificial membrane permeability assay for the blood–brain barrier (PAMPA-BBB)
Assay type: in vitro ADME
Conditions: PAMPA; compound within I. rotunda extract (10 mg/mL stock), pH 7.4, 37 °C, 4 h; read-out: BBB permeability log Pe (converted)
Test Readout: Papp at 4 h, 1 mg/mL extract (×10⁻⁶ cm/s)
// units = ×10⁻⁶ cm/s; emit number, no label

Challenge: Data request, read-out Papp at 4 h, 1 mg/mL extract, for O=C(/C=C/c1ccc(O)c(O)c1)O[C@@H]1[C@H](O)C[C@@](O)(C(=O)O)C[C@H]1OC(=O)/C=C/c1ccc(O)c(O)c1
Response given: 1.58

###

Assay: Parallel artificial membrane permeability assay for the blood–brain barrier (PAMPA-BBB)
Type: in vitro ADME
Details: PAMPA; single compounds at concentration of 10 mM (stock), pH 7.4, 37 °C, 4 h; read-out: BBB Permeability log Pe (converted)
Test Readout: Papp at 4 h, 1 mM (×10⁻⁶ cm/s)

P: O=C(/C=C/c1ccc(O)c(O)c1)O[C@@H]1[C@H](O)C[C@@](O)(C(=O)O)C[C@H]1OC(=O)/C=C/c1ccc(O)c(O)c1
Q: O=C(O)/C=C/c1ccc(O)c(O)c1 [caffeic acid, reference compound]
R: O=c1ccc2ccccc2o1 [coumarin, reference compound]
Challenge: Rank the listed compounds by Papp at 4 h, 1 mM, largest first. Dear reader, please state the labels in the requested order.
Response given: R, P, Q
(R: 28.8 ×10⁻⁶ cm/s, P: 1.41 ×10⁻⁶ cm/s, Q: 0.000832 ×10⁻⁶ cm/s)
